Assay: In vivo pharmacokinetics study in rats, intravenous and oral administration
Design: species or system male Sprague Dawley rats
Conditions: Sprague Dawley, rat, plasma; male rats, IV 2.5 mg/kg, individual animals R 1-R 3
Measurement type: Tmax (min)
Respond with the bare value in min.

Q) # return recorded Tmax for input OCCn1cc(-c2ncc3nnn(Cc4ccc5ncccc5c4)c3n2)cn1 [Example 5]
A) 4.8

----------
Test: In vivo pharmacokinetics study in rats, intravenous and oral administration
Parameters: species or system male Sprague Dawley rats
Settings: male, Sprague Dawley, rat, plasma, po, 10 mg/kg, PO 10 mg/kg, fasted, mean (n=3)
Measurement type: half-life (h)
The reply should contain only the number, in h.

Q) Indicate its recorded half-life; the compound in question is OCCn1cc(-c2ncc3nnn(Cc4ccc5ncccc5c4)c3n2)cn1 [Example 5]
A) 2.89

----------
Test: In vivo pharmacokinetics study in rats, intravenous and oral administration
Set-up: species or system male Sprague Dawley rats
Settings: Sprague Dawley, rat, plasma; male rats, PO 10 mg/kg, fasted, individual animals R 4-R 6
Measurement type: Tmax (h)
# value in h; strip the unit string

Q) Check the records and state Tmax for OCCn1cc(-c2ncc3nnn(Cc4ccc5ncccc5c4)c3n2)cn1
A) 2

----------
Test: In vivo pharmacokinetics study in rats, intravenous and oral administration
Design: species or system male Sprague Dawley rats
Details: male, Sprague Dawley, rat, plasma, po, 10 mg/kg, PO 10 mg/kg, fasted, individual animals R 4-R 6
Measurement type: AUC(0-inf) (ng·h/mL)
Give the value in ng·h/mL but do not write ng·h/mL after it.

Q) Answer with the recorded AUC(0-inf) for the compound listed here: OCCn1cc(-c2ncc3nnn(Cc4ccc5ncccc5c4)c3n2)cn1
A) 17500

----------
Test: In vivo pharmacokinetics study in rats, intravenous and oral administration
Set-up: species or system male Sprague Dawley rats
Settings: male, Sprague Dawley, rat, plasma, po, 10 mg/kg, PO 10 mg/kg, fasted, mean (n=3), read-out: Cmax
Measurement type: Cmax (ng/mL)
Return type: number; implicit unit ng/mL.

Q) Return Cmax (reported value) for this molecule: OCCn1cc(-c2ncc3nnn(Cc4ccc5ncccc5c4)c3n2)cn1
A) 2110

----------
Test: In vivo pharmacokinetics study in rats, intravenous and oral administration
Set-up: species or system male Sprague Dawley rats
Settings: male, Sprague Dawley, rat, plasma, iv, 2.5 mg/kg, IV 2.5 mg/kg, individual animals R 1-R 3
Measurement type: half-life (h)
Write the value in h as a bare number.

Q) Give the reported value of half-life for this record: OCCn1cc(-c2ncc3nnn(Cc4ccc5ncccc5c4)c3n2)cn1 [Example 5]
A) 2.62

----------
Assay: In vivo pharmacokinetics study in rats, intravenous and oral administration
Design: species or system male Sprague Dawley rats
Settings: male, Sprague Dawley, rat, plasma, po, 10 mg/kg, PO 10 mg/kg, fasted, individual animals R 4-R 6, read-out: AUC(0-t)
Measurement type: AUC(0-t) (ng·h/mL)
Give a bare numeral; the unit ng·h/mL is implied.

Q) Item OCCn1cc(-c2ncc3nnn(Cc4ccc5ncccc5c4)c3n2)cn1 : provide AUC(0-t)
A) 17400

----------
Test: In vivo pharmacokinetics study in rats, intravenous and oral administration
Set-up: species or system male Sprague Dawley rats
Details: male, Sprague Dawley, rat, plasma, iv, 2.5 mg/kg, IV 2.5 mg/kg, mean (n=3), read-out: AUC(0-t)
Measurement type: AUC(0-t) (ng·h/mL)
Quick note: give the figure in ng·h/mL, leave out the unit.

Q) Look up and report measured AUC(0-t) for this entry: OCCn1cc(-c2ncc3nnn(Cc4ccc5ncccc5c4)c3n2)cn1
A) 5400

// provenance: patent US8598184B2
